Data origin: PubChem BioAssay (NCI)

Test system: RXF 393 renal
Test: NCI tumour cell line growth inhibition, 48 h
measured_endpoint: log10(TGI) (log10 of the value in µM)
Values below are the log10 of the recorded TGI, with µM as the unit.

Past entries and their recorded results:
COc1cc(/C=C\c2cc(OC)c(OC)c(OC)c2)cc(NS(=O)(=O)c2ccc(Cl)cc2)c1OC = 0.09
CCN1CCN(c2nc(NNC(=O)c3ccccc3)nc(N3CCN(C(c4ccccc4)c4ccccc4)CC3)n2)CC1 = 0.88
CC1=C2[C@@H](CC1)[C@]1(C)O[C@@](C3CC3)(C[C@H]1OC(=O)CO)[C@H]2OC(=O)/C=C/c1ccccc1 = -0.07
COc1cc(/C=C2\C(=O)N(C)c3ccccc32)cc(OC)c1OC = 0.76
COc1ccc(Cc2nc3cc(OC)c(OC)cc3c(=O)[nH]2)cc1 = 1.39
O=C(N/N=C/c1ccc(F)cc1)c1ccc(C(F)(F)F)nc1Nc1cccc(C(F)(F)F)c1 = 0.43

// next entry
-- ask Entry "CC1(C)CC[C@]2(C(=O)O)CC[C@]3(C)C(=CC[C@@H]4[C@@]5(C)C/C(=C/c6ccco6)C(=O)C(C)(C)[C@@H]5CC[C@]43C)[C@@H]2C1" has what log10(TGI)?
-- reply 1.13

* * *

Tested on: NCI-H23 lung
Assay: NCI tumour cell line growth inhibition, 48 h
measured_endpoint: GI50

Answered cases to consult:
CC1=C2[C@@H](CC1)[C@]1(C)O[C@@](C3CC3)(C[C@H]1OC(=O)CO)[C@H]2OC(=O)/C=C/c1ccccc1 = 16600 nM
COc1c(O)c2c3c(c1OC)-c1ccccc1CC3N(S(=O)(=O)c1ccc(C)cc1)CC2 (configuration not stated) = 1170 nM
CNCc1ccc(-c2[nH]c3cc(F)cc4c3c2CCNC4=O)cc1 = 20800 nM
O=C(/C=C(\[O-])c1ccccc1)CCCCCCC(=O)/C=C(\[O-])c1ccccc1.O=C(/C=C(\[O-])c1ccccc1)CCCCCCC(=O)/C=C(\[O-])c1ccccc1.O=C(/C=C(\[O-])c1ccccc1)CCCCCCC(=O)/C=C(\[O-])c1ccccc1.[Nd+3].[Nd+3] = > 50000 nM
CC1=C(CNO)C2=C(C)C3(CC3)[C@@](C)(O)C(=O)C2=C1 = 473 nM

Your task in this section: give GI50 for each listed record.
1. O=C(N/N=C/c1ccc(F)cc1)c1ccc(C(F)(F)F)nc1Nc1cccc(C(F)(F)F)c1
2. COC(=O)c1ccc2[nH]c(O)c(C(=Nc3ccc(N(C)C(=O)CN4CCN(C)CC4)cc3)c3ccccc3)c2c1

-- reply
1. 2580 nM
2. 1290 nM

* * *

Test system: SNB-19 CNS
Test: NCI tumour cell line growth inhibition, 48 h
Rule: TGI under 30 µM gives F, otherwise T.

COc1cc2cc3c(c(O)c2c(O)c1-c1c(OC)cc2cc4c(c(O)c2c1O)C(=O)O[C@H](C)C4)C(=O)O[C@H](C)C3 = T
C=CCNC1=C2C[C@@H](C)C[C@@H](OC)[C@H](OC(=O)CCN(C)C)[C@H](C)/C=C(\C)[C@@H](OC(N)=O)[C@H](OC)/C=C\C=C(/C)C(=O)NC(=CC1=O)C2=O = F
COc1ccc(Cc2nc3cc(OC)c(OC)cc3c(=O)[nH]2)cc1 = T
CNCc1cccc2c1OCCOCCOCCC(C)S(=O)(=O)c1ccc(cc1)-c1cnc(N)c(n1)C(=O)N2 (configuration not stated) = F
COc1ccc(/C=C\c2cc(OC)c(OC)c(OC)c2)c(NS(=O)(=O)c2ccc(C(C)(C)C)cc2)c1O = F

-- ask Determine whether this compound has TGI no lower than 30 µM: "CCSc1ncc(Br)c(Sc2nc(N)nc3nc[nH]c23)n1"
-- reply T

-- ask Identify whether the reported TGI of the following compound is 30 µM or greater: c1ccc2c3c([nH]c2c1)C1C2CCCCN2C(c2ccncc2)N1CC3 (configuration not stated)
-- reply T

-- ask Given CC(C)=CCC/C(C)=C/C=C/C(C)=C/C1C[C@@]2(C(O)O1)[C@H](CCCO)/C(=C(/C)C=O)CC[C@]2(C)O (some centres not stated) , state whether its TGI is at least 30 µM.
-- reply T

-- ask Form field: TGI at least 30 µM? Entry: CC(C)(CN1CCCCC1)C(=O)CC(SCCS(=O)(=O)O)c1ccc(Cl)cc1 (configuration not stated)
-- reply F

-- ask Reported TGI reaches at least 30 µM for "CSc1nc[nH]c1C(N)=S" ?
-- reply T

-- ask Reported TGI at or above 30 µM? "c1cncc([O][Ge]([O]c2cccnc2)([O]c2cccnc2)[O]c2cccnc2)c1"
-- reply T

* * *

System: U251 CNS
measured_endpoint: GI50

CCN(CC)CCOc1ccc2c(C)c(C(=O)OC)oc2c1C(=O)/C=C/c1ccc(OC)cc1 = 1.75 µM
[Cl-].[Gd+3].[O-]/N=C(\c1ccccc1)c1ccccn1.[O-]/N=C(\c1ccccc1)c1ccccn1.[O-]/N=C(\c1ccccc1)c1ccccn1 = 68.9 µM
Fc1ccc(-c2nn3c(COc4ccc(Cl)cc4)nnc3s2)cc1Oc1ccccc1 = 25.1 µM

Proceeding to the next compound to report its GI50.
-- ask Fill blank: measured GI50 of the compound COC(=O)[C@]1(C)CCC[C@]2(C)[C@@H]1CCC13C[C@@H](C=CO1)[C@@H](C)CC32O (some centres undefined) is ____.
-- reply > 100 µM

* * *

Tested on: NCI-H226 lung
Assay: NCI tumour cell line growth inhibition, 48 h; in the data active = GI50 below about 0.43 µM; inactive = the rest
I would appreciate it if you answered using one of these outcomes: active, inactive

Example results:
CCOc1ccc(Nc2nc(-c3c(C)nc4ncccn34)cs2)cc1 = inactive
COC(=O)c1ccc2[nH]c(O)c(C(=Nc3ccc(N(C)C(=O)CN4CCN(C)CC4)cc3)c3ccccc3)c2c1 = inactive
COc1cc(OC)cc(-c2ccc(-c3ccc(C(=N)N)cn3)s2)c1 = inactive

-- ask Hey, what did the test say about CNCc1cccc2c1OCCOCCOCCC(C)S(=O)(=O)c1ccc(cc1)-c1cnc(N)c(n1)C(=O)N2 (centres undefined) ?
-- reply inactive

-- ask Hello, I am checking results. What call was entered for "N#CC(NC(=O)CCl)=C(Cl)Cl" ?
-- reply inactive

-- ask # fetch the recorded call for NC(=O)c1ncn(C2OC(CO)C(O)C2O)c1N (centres undefined) here
-- reply inactive

-- ask Outcome logged for COc1cccc(C2C(C#N)=C(N)Oc3cc4c(cc32)OCO4)c1 (centres undefined) in this assay:
-- reply active

-- ask Give the logged outcome of this assay for the following molecule: "CC(=O)[O-].[Mn+3].[O-]c1ccc(Cl)cc1C=NCCN=Cc1cc(Cl)ccc1[O-]"
-- reply inactive

-- ask Could you check what this test reported for "COc1cc2c(cc1OCCCOc1ccc(-c3cc4ccccc4c4ccccc34)cc1)N=C[C@@H]1CCCN1C2=O" ?
-- reply inactive

-- ask Which outcome was entered for the molecule "Cn1ccnc1C(=O)/C=C/c1ccc(C(=O)Nc2c(F)c(F)c(F)c(F)c2F)cc1" in this test?
-- reply inactive

-- ask Tell me the recorded outcome of this test for "COc1ccc(/C=C\c2cc(OC)c(OC)c(OC)c2)c(NS(=O)(=O)c2ccc(C(C)(C)C)cc2)c1O" .
-- reply inactive

-- ask Given "NC(N)=N/N=C/c1c(-c2ccncc2)nc2sc(Cl)cn12" , state the outcome it received in this test.
-- reply inactive

-- ask # outcome recorded in this test, key = "COc1ccc(/C=C/C(C)=N/OCC(=O)Nc2ccc(Cl)cc2)cc1"
-- reply inactive

-- ask Which result was noted for this molecule in the test: "Fc1ccc(-c2nn3c(COc4ccc(Cl)cc4)nnc3s2)cc1Oc1ccccc1"
-- reply inactive

* * *

System: SNB-75 CNS
Assay: NCI tumour cell line growth inhibition, 48 h
measured_endpoint: TGI

Examples with answers:
C=CCOC(=O)N1c2ccc(O)cc2[C@@]23O[C@@]24[C@@H]1C#C/C=C\C#C[C@]3(O)C(=O)C[C@@H]4C = > 100 µM
NNC(=O)N/N=C1\CN(c2ccc(Cl)cc2Cl)C(=O)C(=O)C1c1nc2ccccc2o1 (stereo not drawn) = > 100 µM
Cc1cc(=O)n2nc(CSc3nnc(Sc4cc(O)ccc4O)s3)sc2n1 = > 100 µM
CCN(CC)CCOc1ccc2c(C)c(C(=O)OC)oc2c1C(=O)/C=C/c1ccc(OC)cc1 = 8.44 µM
Cc1ccc(NCCN(C)C)c2c(=O)c3cc(O)ccc3sc12 = 9.24 µM
COc1cccc(CCCNC(=O)Cc2ccccc2CO)c1 = > 100 µM
CCCCCCCCCCCCOC1C(C(CC(=O)N2CCN(Cc3ccc4c(c3)OCO4)CC2)NS(=O)(=O)c2cc(Cl)cc(Cl)c2)OC2OC(C)(C)OC21 (stereo not drawn) = > 100 µM
COc1ccc(/C(C)=C(\c2ccc(Cl)cc2)c2ccc(OCCN3CCCCCC3)cc2)cc1F = 13.3 µM

Report TGI for each item below.
1. O=C(O)Cn1ccc(=O)c2cc([N+](=O)[O-])ccc21
2. CCOC(=O)c1cn(CC)c2ccc3c(c2c1=O)S(=O)(=O)C=C3
3. c1ccc2c3c([nH]c2c1)C1C2CCCCN2C(c2ccncc2)N1CC3 (stereo not drawn)
4. N#CCC1(n2cc(-c3ncnc4[nH]ccc34)cn2)CN(C2CCN(C(=O)c3ccnc(C(F)(F)F)c3F)CC2)C1
5. CC(C)=CC(=O)c1c(C(=O)O)nc2ccccc2[n+]1[O-]

-- reply
1: > 100 µM; 2: > 100 µM; 3: 89 µM; 4: > 100 µM; 5: > 100 µM
